Recorded measurements of IC50, one per entry
# target system: T1, IL23R_huFC (human, UniProt Q5VWK5 24-353)
# T1 sequence (looked up): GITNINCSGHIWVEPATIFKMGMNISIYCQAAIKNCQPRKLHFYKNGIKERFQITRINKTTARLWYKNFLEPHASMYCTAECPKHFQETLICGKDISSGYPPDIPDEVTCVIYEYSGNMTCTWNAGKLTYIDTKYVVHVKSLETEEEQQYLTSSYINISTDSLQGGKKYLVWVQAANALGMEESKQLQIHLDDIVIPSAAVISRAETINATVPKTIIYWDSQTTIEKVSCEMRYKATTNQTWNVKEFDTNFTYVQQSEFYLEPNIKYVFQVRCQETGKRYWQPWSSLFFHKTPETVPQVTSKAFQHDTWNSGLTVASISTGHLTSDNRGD
# assay text: IL23-IL23R competitive ELISA
Bridges are numbered along the chain shown (N, C = ends). [ ]: non-standard residue; d: D form. 1Nal = N[C@@H](Cc1cccc2ccccc12)C(=O)O; AEA = NCCOCC(=O)O
quantity kind: IC50

>>> test_value("CXDWVCYXHTF ([Sarc]; [1-Nal]; disulfide) [Hy-C-[Sarc]-DWVCY-[1-Nal]-HTF-OH]")
"> 1 µM"
>>> test_value("Ac-CADWVCY[1Nal]H[dA]FG-NH2 (disulfide 1-6; SMILES CC(=O)N[C@H]1CSSC[C@@H](C(=O)N[C@@H](Cc2ccc(O)cc2)C(=O)N[C@@H](Cc2cccc3ccccc23)C(=O)N[C@@H](Cc2c[nH]cn2)C(=O)N[C@H](C)C(=O)N[C@@H](Cc2ccccc2)C(=O)NCC(N)=O)NC(=O)[C@H](C(C)C)NC(=O)[C@H](Cc2c[nH]c3ccccc23)NC(=O)[C@H](CC(=O)O)NC(=O)[C@H](C)NC1=O) [Ac-CADWVCY-[1-Nal]-H-[(D)Ala]-FG-NH2]")
"> 1 µM"
>>> test_value("Ac-CQTWQCYW[dR][dE]NG[AEA][dK]-NH2 (disulfide 1-6 (inferred)) [Ac-CQTWQCYW-[(D)Arg]-[(D)Glu]-NG-[AEA]-[(D)Lys]-NH2]")
"> 1 µM"
>>> test_value("H-CGNWECYWHVYG-NH2 (disulfide 1-6 (inferred)) [Hy-CGNWECYWHVYG-NH2]")
"> 1 µM"
